Each record here notes measured DC50.
target: UniProt:P03372; assay: In-cell western blot analysis of ER for "B" compounds; assay type: cell-based; settings: 16 hours, read-out: ICW DC50

Quick one: DC50 for O=C1CCC(N2Cc3cc4c(cc3C2=O)OC[C@@H]2CN(C(=O)[C@H]3CC[C@@H](CN5CC(Nc6ccc([C@@H]7c8ccc(O)cc8CC[C@@H]7c7ccccc7)cc6)C5)CC3)CCN42)C(=O)N1 (some centres unmarked) ?
< 10 nM

====

pIC50: −log10 of the molar value.
UniProtKB P03372 data, read-out pIC50

Recorded pIC50 of `O=C1CC[C@H](N2Cc3c(ccc4c3OCC43CCN(CC4CCC5(CC4)CN(c4ccc([C@@H]6c7ccc(O)cc7CC[C@@H]6c6ccccc6)cc4F)C5)CC3)C2=O)C(=O)N1` , please.
> 8.00

Further cases:
Dear colleague, I am looking for the recorded pIC50 of the following compound: COc1cc(N2CCC3(CC2)CC(CN2CCN4c5ccc6c(c5OC[C@H]4C2)CN([C@H]2CCC(=O)NC2=O)C6=O)CO3)ccc1[C@H]1c2ccc(O)cc2CC[C@H]1c1ccccc1 (single isomer, unassigned)
> 8.00

Fill in: pIC50 of `COc1cc(N2CCC(CN3CCC4(CC3)COc3cc5c(cc34)CN([C@H]3CCC(=O)NC3=O)C5=O)CC2)ccc1[C@@H]1c2ccc(O)cc2CC[C@@H]1c1ccccc1` is ___
> 8.00

====

target: CRBN/DDB1 (Homo sapiens (Human), UniProt Q96SW2); conditions: His tagged CRBN+DDB1, Cy5-labeled Thalidomide probe, one hour; read-out: CRBN HTRF IC50
Sequence (Q96SW2 whole entry, species assumed): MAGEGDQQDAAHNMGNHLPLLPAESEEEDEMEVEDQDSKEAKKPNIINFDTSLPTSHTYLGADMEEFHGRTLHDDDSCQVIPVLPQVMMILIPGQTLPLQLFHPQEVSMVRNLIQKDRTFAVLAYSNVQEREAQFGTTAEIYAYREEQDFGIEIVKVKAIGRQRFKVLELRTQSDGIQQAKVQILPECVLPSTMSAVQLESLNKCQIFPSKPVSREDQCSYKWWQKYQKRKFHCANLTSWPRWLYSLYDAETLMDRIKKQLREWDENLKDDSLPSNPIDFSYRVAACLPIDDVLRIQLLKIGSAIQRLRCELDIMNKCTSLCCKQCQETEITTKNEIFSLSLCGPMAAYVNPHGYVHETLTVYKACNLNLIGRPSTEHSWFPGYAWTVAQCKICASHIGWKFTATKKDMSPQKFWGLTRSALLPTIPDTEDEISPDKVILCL
Sequence (Q16531 whole entry partner, species assumed): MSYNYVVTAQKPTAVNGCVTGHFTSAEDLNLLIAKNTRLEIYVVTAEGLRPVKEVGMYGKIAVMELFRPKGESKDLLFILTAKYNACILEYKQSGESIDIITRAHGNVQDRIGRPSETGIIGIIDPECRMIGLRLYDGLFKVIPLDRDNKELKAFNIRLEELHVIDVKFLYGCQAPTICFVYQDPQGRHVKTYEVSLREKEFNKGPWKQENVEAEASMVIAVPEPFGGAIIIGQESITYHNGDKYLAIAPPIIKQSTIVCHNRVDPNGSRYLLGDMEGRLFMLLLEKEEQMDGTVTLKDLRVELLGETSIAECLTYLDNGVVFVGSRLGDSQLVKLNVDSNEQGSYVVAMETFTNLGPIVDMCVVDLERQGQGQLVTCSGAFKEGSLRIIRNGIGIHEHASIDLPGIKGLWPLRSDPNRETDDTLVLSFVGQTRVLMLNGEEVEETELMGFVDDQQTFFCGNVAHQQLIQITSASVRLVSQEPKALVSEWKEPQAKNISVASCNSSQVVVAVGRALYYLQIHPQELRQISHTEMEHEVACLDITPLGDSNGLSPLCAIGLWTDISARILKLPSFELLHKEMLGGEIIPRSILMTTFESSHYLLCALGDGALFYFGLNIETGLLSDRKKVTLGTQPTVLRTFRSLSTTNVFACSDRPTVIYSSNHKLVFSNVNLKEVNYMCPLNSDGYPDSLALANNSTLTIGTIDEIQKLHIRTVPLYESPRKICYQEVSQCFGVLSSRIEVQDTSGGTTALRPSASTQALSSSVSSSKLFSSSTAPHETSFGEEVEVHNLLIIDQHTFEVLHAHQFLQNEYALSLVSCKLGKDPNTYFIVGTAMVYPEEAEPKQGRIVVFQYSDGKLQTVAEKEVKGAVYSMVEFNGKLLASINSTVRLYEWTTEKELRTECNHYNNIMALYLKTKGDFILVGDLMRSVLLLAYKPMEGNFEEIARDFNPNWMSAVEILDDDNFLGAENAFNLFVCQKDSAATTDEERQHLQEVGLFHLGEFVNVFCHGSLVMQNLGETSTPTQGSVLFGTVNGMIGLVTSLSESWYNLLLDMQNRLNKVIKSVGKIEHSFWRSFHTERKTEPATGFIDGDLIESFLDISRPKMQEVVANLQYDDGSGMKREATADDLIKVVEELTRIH
pIC50: −log10 of the molar value.
Let's look at some compounds and their measured pIC50.

May I ask what pIC50 has been recorded for O=C1CC[C@H](N2Cc3cc4c(cc3C2=O)OC[C@@H]2CN(CC3CCC5(CC3)CN(c3ncc([C@@H]6c7ccc(O)cc7CC[C@@H]6c6ccccc6)cn3)C5)CCN42)C(=O)N1 (single isomer, unassigned) [Compound A158] ?
5.30 to 6.30

Now look at this one.
Please report the recorded pIC50 for COc1cc(N2CC3(CC(CN4CCN5c6ccc7c(c6OC[C@H]5C4)CN([C@H]4CCC(=O)NC4=O)C7=O)CO3)C2)ccc1[C@@H]1c2ccc(O)cc2CC[C@@H]1c1ccccc1 (single isomer, unassigned) [Compound A48] .
6.30 to 7.30

====

target: ER in T47D cells (Homo sapiens (Human), UniProt P03372); experiment: In-cell Western (ICW) ER degradation assay in T47D cells; format: cell-based; details: maximal ER degradation, 16 hrs treatment, read-out: T47D Dmax
Sequence (P03372 whole entry): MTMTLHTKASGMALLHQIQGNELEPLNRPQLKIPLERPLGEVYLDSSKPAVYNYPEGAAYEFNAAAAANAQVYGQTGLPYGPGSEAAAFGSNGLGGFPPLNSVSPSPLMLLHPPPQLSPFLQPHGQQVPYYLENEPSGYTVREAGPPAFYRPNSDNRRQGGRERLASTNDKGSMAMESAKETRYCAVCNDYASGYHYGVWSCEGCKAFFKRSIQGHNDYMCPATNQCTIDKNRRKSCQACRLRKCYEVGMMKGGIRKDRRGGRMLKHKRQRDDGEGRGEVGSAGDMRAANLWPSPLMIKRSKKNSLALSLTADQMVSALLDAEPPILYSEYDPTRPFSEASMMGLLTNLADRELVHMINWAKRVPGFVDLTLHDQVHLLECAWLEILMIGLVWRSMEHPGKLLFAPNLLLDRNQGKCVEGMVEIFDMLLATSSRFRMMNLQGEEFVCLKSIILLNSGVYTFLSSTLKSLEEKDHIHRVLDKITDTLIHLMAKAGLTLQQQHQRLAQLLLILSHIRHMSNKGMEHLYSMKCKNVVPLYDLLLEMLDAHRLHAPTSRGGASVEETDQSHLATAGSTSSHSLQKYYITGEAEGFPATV
Each record here notes measured Dmax.

Consider the worked cases shown below.
Query: Dmax; subject: COc1cc(N2CCC3(CC2)CC(CN2CCN4c5ccc(C(=O)N[C@H]6CCC(=O)NC6=O)nc5OCC4C2)C3)ccc1[C@@H]1c2ccc(O)cc2CC[C@@H]1c1ccccc1 (stereo in doubt) [Compound A108]
50 to 75%

Give the measured Dmax of O=C1CC[C@@H](Nc2ccc(C3CCN(C[C@@H]4COC5(CCN(c6ccc([C@@H]7c8ccc(O)cc8CC[C@@H]7c7ccccc7)cc6)CC5)C4)CC3)cc2)C(=O)N1 (single isomer, unassigned) [Compound A29] .
25 to 50%

Give the measured Dmax of O=C1CC[C@H](Nc2ccc(C3CCN(C[C@@H]4COC5(CCN(c6ccc([C@@H]7c8ccc(O)cc8CC[C@@H]7c7ccccc7)cc6)CC5)C4)CC3)c(F)c2)C(=O)N1 (single isomer, unassigned) [Compound A61] .
< 25%

Bench note: what Dmax did O=C1CC[C@H](N2Cc3cc4c(cc3C2=O)OC[C@H]2CN(C[C@H]3COC5(CCN(c6ccc([C@@H]7c8ccc(O)cc8CC[C@@H]7c7ccccc7)cc6)CC5)C3)CCN42)C(=O)N1 (single isomer, unassigned) [Compound A17] show?
25 to 50%

Give its Dmax value. Item: O=C1CC[C@H](NC(=O)c2ccc3c(n2)OC[C@H]2CN(C[C@@H]4COC5(CCN(c6ccc([C@H]7c8ccc(O)cc8CC[C@H]7c7ccccc7)cc6)CC5)C4)CCN32)C(=O)N1 (single isomer, unassigned) [Compound A16]
50 to 75%

Others:
Given O=C1CC[C@@H](Nc2ccc(C3CCN(CC4CCC5(CC4)CN(c4ccc([C@@H]6c7ccc(O)cc7CC[C@@H]6c6ccccc6)cc4)C5)CC3)cc2)C(=O)N1 (single isomer, unassigned) [Compound A65] , state its recorded Dmax.
> 75%

Quick one: Dmax of O=C1CC[C@H](Nc2ccc(C3CCN(C[C@@H]4COC5(CCN(c6ccc([C@H]7c8ccc(O)cc8CC[C@H]7c7ccccc7)cc6)CC5)C4)CC3)c(F)c2)C(=O)N1 (single isomer, unassigned) [Compound A59] ?
< 25%

# Dmax lookup, item COc1cc(N2CCC3(CC2)CC(CN2CCN4c5cc6c(cc5OC[C@@H]4C2)C(=O)N([C@H]2CCC(=O)NC2=O)C6)C3)ccc1[C@@H]1c2ccc(O)cc2CC[C@@H]1c1ccccc1 (single isomer, unassigned) [Compound A12]
> 75%

I'd like to know its Dmax. The compound in question is COc1cc(N2CCC3(CC2)CC(CN2CCN4c5ccc(C(=O)N[C@H]6CCC(=O)NC6=O)nc5OC[C@@H]4C2)C3)ccc1[C@H]1c2ccc(O)cc2CC[C@H]1c1ccccc1 (single isomer, unassigned) [Compound A107]
50 to 75%

What value of Dmax has been reported for the following compound? COc1cc(N2CCC(CN3CCN4c5cc6c(cc5OC[C@@H]4C3)C(=O)N([C@H]3CCC(=O)NC3=O)C6)CC2)c(F)cc1[C@@H]1c2ccc(O)cc2CC[C@@H]1c1ccccc1 [Compound A91]
> 75%

Values were extracted from patent US20260028354A1.
